Hi there, I'd appreciate the recorded GI50 for every entry that follows.
Test system: ACHN
Assay: Antiproliferative activity against human ACHN cells
Assay type: functional
Hi! Could you send only the number? It should be in nM, unit omitted.

Value of measured GI50 for the entry O=C(CCC1=CCN(Cc2cccc(C(F)(F)F)c2)C1=O)NO : 670

Value of measured GI50 for the entry COc1cccc(CCCN2CC=C(CCC(=O)NO)C2=O)c1 : 2480

Value of measured GI50 for the entry O=C(CCC1=CCN(Cc2ccccc2)C1=O)NO : 1080

Value of measured GI50 for the entry COc1ccccc1CCN1CC=C(CCC(=O)NO)C1=O : 2530

Value of measured GI50 for the entry COc1ccccc1CCCN1CC=C(CCC(=O)NO)C1=O : 2530

Value of measured GI50 for the entry O=C(CCC1=CCN(CCc2ccc(C(F)(F)F)cc2)C1=O)NO : 2480

Value of measured GI50 for the entry COc1ccc(CN2CC=C(CCC(=O)NO)C2=O)cc1 : 2480

Value of measured GI50 for the entry COc1ccc(CCN2CC=C(CCC(=O)NO)C2=O)cc1 : 2380
